assay: in vitro; conditions: human, hela cells, % viability
measurement type: viability at 28.5 h, 10 µM (%)
Numbers only; they are read as %.

> print(dat)
                                   molecule  unit.label  numeric.readout
1       OCc1ccc(-n2cc(-c3ccc(F)cc3F)nn2)cc1           %             89.2
2  O=C1CC(c2ccccc2O)CC2=C1C=Nc1ccccc1N2 (centres unmarked)           %             97.4
3   CCOc1ccc(NC(=O)N(CCOC)Cc2cnn(C)c2)cc1Cl           %             90.3
4  O=C(Nc1ccc(S(=O)(=O)N2CCCCCC2)cc1)c1nc2ncccn2n1           %             97.7
5  O=C(NC(=S)N1CCN(c2ccc([N+](=O)[O-])c(N3CCOCC3)c2)CC1)c1cc2ccccc2o1           %              109

Query :: Retrieve viability at 28.5 h, 10 µM measured for CC(C)(CO)CNc1cncc(-c2cc3ccccc3o2)n1 and print it.
Result :: 91.1

Query :: Retrieve viability at 28.5 h, 10 µM measured for CCSC1CCC(N(C)CC(=O)NCc2ccco2)C1 (centres unmarked) and print it.
Result :: 84.3

====

assay: in vitro; settings: human, hela cells, % viability
Recorded viability at 28.5 h, 10 µM for the following molecules
Numbers only; they are read as %.

Answered examples (6):
> print(dat)
                                   molecule  numeric.readout
1  CCOC(=O)c1cc2c(=O)n3cc(C)ccc3nc2n(Cc2cccnc2)c1=N             90.5
2  O=C(O)CCC(C(=O)O)N1C(=O)/C(=C\C(Cl)=C/c2ccc([N+](=O)[O-])cc2)SC1=S (stereo not drawn)             92.1
3  CCOc1ccc(C2=NN(C(=O)CCC(=O)O)C(c3ccc4nccnc4c3)C2)cc1 (stereo not drawn)              103
4  Cc1cc(C)cc(C(=O)N2CCC(NC(=O)c3cnn(C)c3)CC2)c1             92.3
5       CN(c1ncccc1CNC(=O)c1cccnc1)C1CCCCC1              103
6          CN1CCc2nc(SCc3cccnc3)c(C#N)cc2C1             87.4

Query :: Retrieve viability at 28.5 h, 10 µM measured for CN(Cc1ccc(-c2ccc(S(C)(=O)=O)cc2)nc1)C1CCN(C(=O)Cc2cccc(C(F)(F)F)c2)CC1 [CBK164104T] and print it.
Result :: 90.2

Query :: Retrieve viability at 28.5 h, 10 µM measured for Fc1ccc(-c2nccnc2OCc2ccc3c(c2)OCO3)cc1 and print it.
Result :: 93.3

Query :: Retrieve viability at 28.5 h, 10 µM measured for CS(=O)(=O)N1CCN(c2nc(C(F)(F)F)nc3ccsc23)CC1 and print it.
Result :: 91.1

====

assay: in vitro; settings: human, hela cells, % viability
measurement type: viability at 28.5 h, 10 µM (%)
Numbers only; they are read as %.

> print(dat)
                                   compound            measurement.type  unit.label  numeric.readout
1  Cc1cc(=O)c2ccccc2n1CC(=O)N1CCOC2(CCCC2)C1  viability at 28.5 h, 10 µM           %             93.5
2  CC(=O)Nc1sc(/C(C#N)=C/c2cccc(Oc3ccccc3)c2)nc1-c1ccc(C)cc1  viability at 28.5 h, 10 µM           %             98.4
3                          CSc1ncnc2c1CC=N2  viability at 28.5 h, 10 µM           %             96.4

Query :: Retrieve viability at 28.5 h, 10 µM measured for O=C(NCCc1ccc(O)cc1)C1(c2ccccc2)CCCC1 and print it.
Result :: 84.9

Query :: Retrieve viability at 28.5 h, 10 µM measured for Fc1ccc2c(ccn2CCCN2CCN(c3ccncc3)CC2)c1 [CBK043645G] and print it.
Result :: 89.4

Query :: Retrieve viability at 28.5 h, 10 µM measured for CCc1nn(CC(=O)N(CC)CC)c(=O)c2cc3sc(C)cc3n12 and print it.
Result :: 86.2

Query :: Retrieve viability at 28.5 h, 10 µM measured for CCN1CC2(CCN(Cc3cc(OC)c(OC)c(OC)c3)CC2)c2ccccc21 and print it.
Result :: 93.2

Query :: Retrieve viability at 28.5 h, 10 µM measured for Cc1cc(C)n2nc(C(=O)N3CCC(C)CC3c3ccco3)nc2n1 (centres unmarked) and print it.
Result :: 84.8

Query :: Retrieve viability at 28.5 h, 10 µM measured for CNC(=O)CC1CCN(c2cc(C#N)ccc2C(F)(F)F)CC1 and print it.
Result :: 112

Query :: Retrieve viability at 28.5 h, 10 µM measured for CC(C)Nc1nc2ccccc2nc1OCCC#N and print it.
Result :: 103

Query :: Retrieve viability at 28.5 h, 10 µM measured for CN(C)S(=O)(=O)c1ccc(C(=O)C2=C(O)C(=O)N(CCN3CCCCC3)C2c2cccnc2)cc1 (centres unmarked) and print it.
Result :: 99.9

Query :: Retrieve viability at 28.5 h, 10 µM measured for O=C(OCCC1SC(NC2CC3C=CC2C3)=NC1=O)c1cc(F)ccc1F (centres unmarked) [CBK200059T] and print it.
Result :: 92.2

Query :: Retrieve viability at 28.5 h, 10 µM measured for COCc1nnc(SCC(=O)N2CCc3ccccc32)n1-c1ccccc1 and print it.
Result :: 83.1

====

assay: in vitro; conditions: human, hela cells, % viability
Decide using viability at 28.5 h, 10 µM alone. Strictly below 90%: Y. Equal to or above 90%: N.

Below, 4 molecules whose answers are already recorded.
> print(dat)
                                   molecule  classification
1  CN(Cc1ccccc1)Cc1nc2c([nH]1)c(=O)[nH]c(=O)n2C               N
2  O=C(c1ccccn1)N1CCCC(c2cc3ccccc3cn2)C1 (stereo not shown)               N
3  Cc1ccc(C(=O)CC(C(=O)O)c2cn(CCC#N)c3ccccc23)cc1 (stereo not shown)               Y
4  CN1CCCC(NC(=O)Cn2nc(C(F)(F)F)c3c2CCCC3)C1 (stereo not shown)               N

Query :: Item Cn1cc(C(=O)CCC(=O)NC2CCCN(c3ncccn3)C2)cn1 (stereo not shown) : viability at 28.5 h, 10 µM beneath 90%, strictly?
Result :: N

Query :: Item CCC(C(=O)N1CCC(O)(c2ccccn2)CC1)c1ccccc1 (stereo not shown) : viability at 28.5 h, 10 µM beneath 90%, strictly?
Result :: N

Query :: Item CCN1CCC[C@@H]1CNc1cc(NS(=O)(=O)c2cccs2)cc2ccoc12 [CBK067904C] : viability at 28.5 h, 10 µM beneath 90%, strictly?
Result :: Y

Query :: Item CC(=O)Nc1ccc(/C(C)=N\NC(=O)CCN2CCCCC2)cc1 : viability at 28.5 h, 10 µM beneath 90%, strictly?
Result :: N

Query :: Item COCc1cn([C@H]2CO[C@H]3[C@@H]2OC[C@@H]3NC(=O)Nc2ccc(OC)cc2)nn1 : viability at 28.5 h, 10 µM beneath 90%, strictly?
Result :: N

Query :: Item Cc1c(Cl)cccc1NC(=S)/N=C(\N)Nc1nc(C)c2ccccc2n1 : viability at 28.5 h, 10 µM beneath 90%, strictly?
Result :: Y

====

test: in vitro; conditions: human, hela cells, % viability
Recorded viability at 28.5 h, 10 µM for the following molecules
Numbers only; they are read as %.

> print(dat)
                                   molecule  numeric.readout
1  COc1ccc(-c2cnc(NCC3CC3)c(C(=O)N3CCN(C)CC3)c2)cc1 [CBK076327]             96.6
2  CC1(C)CC(=O)c2sc(NC(=O)Cc3ccc(Cl)c(Cl)c3)nc2C1 [CBK144103]             93.7
3  Cc1ccccc1OCC(O)CNC(=O)c1ccccc1C(=O)O (centres unmarked) [CBK264824]             94.8

Query :: Retrieve viability at 28.5 h, 10 µM measured for Cc1oc(-c2ccc(Cl)cc2)cc1C(=O)CC#N [CBK047603] and print it.
Result :: 85.4

Query :: Retrieve viability at 28.5 h, 10 µM measured for COC(=O)c1sc(NC(=O)c2cccnc2)c(C#N)c1C [CBK265007] and print it.
Result :: 89.4
